Exercise: for every item that follows, state its recorded IC50.
assaySystem: CCK-1 receptors (Rattus norvegicus, UniProt P30551)
Construct: The pancreatic acini obtained from the outbred male rat pancreas of the Sprague Dawley strain; from tissue; host or cells: isolated pancreatic acini of male Sprague Dawley rats
Sequence (P30551 1-444): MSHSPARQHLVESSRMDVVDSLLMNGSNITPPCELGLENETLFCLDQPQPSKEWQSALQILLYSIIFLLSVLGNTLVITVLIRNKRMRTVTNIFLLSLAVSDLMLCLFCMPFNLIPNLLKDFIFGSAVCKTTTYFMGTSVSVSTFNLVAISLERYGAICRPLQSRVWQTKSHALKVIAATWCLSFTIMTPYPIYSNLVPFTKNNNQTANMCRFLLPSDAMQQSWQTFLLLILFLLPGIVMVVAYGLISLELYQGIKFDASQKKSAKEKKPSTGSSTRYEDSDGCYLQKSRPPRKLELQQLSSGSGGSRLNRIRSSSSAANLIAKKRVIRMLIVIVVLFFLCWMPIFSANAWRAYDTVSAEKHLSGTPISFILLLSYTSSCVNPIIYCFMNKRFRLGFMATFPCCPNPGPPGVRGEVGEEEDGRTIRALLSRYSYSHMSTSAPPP
experimentalDetails: Inhibition of binding of [125I]-BH-CCK-8 to isolated rat pancreatic acini
# output: bare number, implied unit nM

Prompt: Record O=C(Nc1ccccc1C(=O)N[C@H](CCc1ccccc1)C(=O)O)c1cc2ccccc2[nH]1 : what is its IC50 with CCK-1 receptors (Rattus norvegicus, UniProt P30551)?
Completion: 9

Prompt: Record O=C(Nc1ccccc1C(=O)NC(CCc1ccccc1)C(=O)O)c1cc2ccccc2[nH]1 (centres unmarked) : what is its IC50 with CCK-1 receptors (Rattus norvegicus, UniProt P30551)?
Completion: 14
